target: T1, West Nile virus strain USA99b (strain 385-99), whole virus (West Nile virus strain 385-99 (USA99b)); test: phage ELISA on coated whole inactivated WNV
T1 construct: mature
Assay Readout: OD 492 nm (OD)
Answers are plain numbers, in OD.

Query block: I am curious: what OD 492 nm value has been reported for SC04-271 (scFv) scFv: EVQLVETGAEVKKPGESLRISCKGSGYTFNNYWIGWVRQMPGKGLEWMGIIYPGDSDTRYSPSVQGHVTISADKSINTAYLQWSSLKASDTAVYYCARRPGYDYGFYYFDYWGQGTLVTVSSGTGGSGGTGSGTGGSTQSALTQPRSVSGSPGQSVTISCTGTSSDVGGYNYVSWYQHHPGKAPKLMIYDVSNRPLGVSNRFSGSKSGNTASLTISGLQAEDEADYYCSSYTSSSTYVFGTGTHLTVLS ?
Result block: 0.984
